# credit: paper PMC2866327

Tested system: UniProt P14735
Method notes: In vitro IDE enzymatic assay (hydrolysis of FRET1, SP1, FAβB, 125I-insulin or insulin by HTRF)
Assay type: biochemical
Set-up: made in house; host or cells: bacteria
Run parameters: ki^app, Substrate: 125I-Ins
pKi: −log10 of the molar value.

Molecule smiles | pKi
N=C(N)NCCC[C@H](NC(=O)[C@@H](CC(=O)NO)Cc1ccc2ccccc2c1)C(=O)N[C@@H](Cc1c[nH]c2ccccc12)C(=O)N[C@@H](CCC(=O)O)C(N)=O | 7.79

---

Tested system: IDE (Homo sapiens, UniProt P14735)
Sequence (P14735 whole entry): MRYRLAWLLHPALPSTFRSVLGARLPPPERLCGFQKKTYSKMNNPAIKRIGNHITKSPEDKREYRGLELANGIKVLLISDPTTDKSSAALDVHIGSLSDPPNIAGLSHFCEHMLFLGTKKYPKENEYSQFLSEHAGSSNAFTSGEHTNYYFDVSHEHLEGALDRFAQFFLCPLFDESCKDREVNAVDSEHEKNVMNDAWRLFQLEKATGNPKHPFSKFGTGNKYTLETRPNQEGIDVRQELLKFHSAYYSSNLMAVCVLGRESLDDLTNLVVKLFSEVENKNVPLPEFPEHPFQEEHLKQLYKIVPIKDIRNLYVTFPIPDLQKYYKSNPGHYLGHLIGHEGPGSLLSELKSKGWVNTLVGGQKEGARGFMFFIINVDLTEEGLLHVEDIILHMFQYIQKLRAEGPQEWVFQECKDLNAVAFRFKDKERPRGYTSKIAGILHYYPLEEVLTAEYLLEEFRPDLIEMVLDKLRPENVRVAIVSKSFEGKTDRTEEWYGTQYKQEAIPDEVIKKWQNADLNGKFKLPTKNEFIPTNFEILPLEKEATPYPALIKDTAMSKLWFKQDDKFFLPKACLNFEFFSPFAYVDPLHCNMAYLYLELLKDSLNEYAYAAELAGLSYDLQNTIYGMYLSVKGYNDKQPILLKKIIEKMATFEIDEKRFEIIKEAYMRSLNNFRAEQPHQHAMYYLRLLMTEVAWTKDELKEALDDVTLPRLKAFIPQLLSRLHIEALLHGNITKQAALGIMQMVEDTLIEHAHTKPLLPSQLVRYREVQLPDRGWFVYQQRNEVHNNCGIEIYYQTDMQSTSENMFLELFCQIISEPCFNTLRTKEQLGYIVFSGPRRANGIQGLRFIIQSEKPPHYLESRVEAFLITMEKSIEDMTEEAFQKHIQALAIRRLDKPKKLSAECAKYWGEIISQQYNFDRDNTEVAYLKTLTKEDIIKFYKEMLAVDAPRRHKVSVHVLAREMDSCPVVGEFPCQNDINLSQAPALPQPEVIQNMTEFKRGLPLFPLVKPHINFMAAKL
Method notes: In vitro IDE enzymatic assay (hydrolysis of FRET1, SP1, FAβB, 125I-insulin or insulin by HTRF)
Assay type: biochemical
Design: made in house; host or cells: bacteria
Run parameters: commercially available hydroxamic acids
Reported IC50 values follow for various compounds
Measurement kind: IC50 (µM)

Compound | Tested system | Unit symbol | Lt gt eq | Result
CC(C)C[C@H](CC(=O)NO)C(=O)N[C@@H](Cc1ccc2ccccc2c1)C(=O)N[C@@H](C)C(N)=O [TAPI-0, reference compound] | IDE (Homo sapiens, UniProt P14735) | µM | = | 9
COc1ccc(S(=O)(=O)N2Cc3ccccc3C[C@@H]2C(=O)NO)cc1 [MMP-8 Inhibitor I, reference compound] | IDE (Homo sapiens, UniProt P14735) | µM | > | 100
CC(C)C[C@H](CC(=O)NO)C(=O)N[C@H](C(=O)N[C@@H](C)C(=O)NCCN)C(C)(C)C [TAPI-2, reference compound] | IDE (Homo sapiens, UniProt P14735) | µM | = | 11
CNC(=O)[C@H](Cc1c[nH]c2ccccc12)NC(=O)[C@@H](CC(=O)NO)CC(C)C [GM6001 (Galardin), reference compound] | IDE (Homo sapiens, UniProt P14735) | µM | = | 6
N#Cc1ccc(-c2ccc(OCCC(=O)NO)cc2)cc1 [MMP-3 Inhibitor VII, reference compound] | IDE (Homo sapiens, UniProt P14735) | µM | > | 100
CNC(=O)C(CCc1ccccc1)NC(=O)C(CC(=O)NO)CC(C)C (stereo not drawn) [MMP Inhibitor III, reference compound] | IDE (Homo sapiens, UniProt P14735) | µM | > | 100

---

Reported pKi values follow for various compounds
Tested system: UniProtKB P14735
Method notes: In vitro IDE enzymatic assay (hydrolysis of FRET1, SP1, FAβB, 125I-insulin or insulin by HTRF)
Assay type: biochemical
Parameters: made in house; host or cells: bacteria
Run parameters: focused library of retro-inverso peptide hydroxamates Xaa-Arg-Tyr, modification at P1', Fig. 2B; read-out: Ki
pKi: −log10 of the molar value.
Measurement kind: pKi

Molecule smiles | Lt gt eq | Result
CC(C)(C)c1ccc(C[C@H](CC(=O)NO)NC(=O)[C@@H](CCCNC(=N)N)NC(=O)[C@H](N)Cc2ccc(O)cc2)cc1 | = | 4.80
N=C(N)NCCC[C@@H](NC(=O)[C@H](N)Cc1ccc(O)cc1)C(=O)N[C@@H](CC(=O)NO)Cc1cccc2ccccc12 | = | 6.15
N=C(N)NCCC[C@@H](NC(=O)[C@H](N)Cc1ccc(O)cc1)C(=O)N[C@@H](CC(=O)NO)Cc1cccc(F)c1 | = | 5.15
N=C(N)NCCC[C@@H](NC(=O)[C@H](N)Cc1ccc(O)cc1)C(=O)N[C@@H](CC(=O)NO)C(c1ccccc1)c1ccccc1 | < | 3.30
N=C(N)NCCC[C@@H](NC(=O)[C@H](N)Cc1ccc(O)cc1)C(=O)N[C@@H](CC(=O)NO)Cc1ccc(F)cc1 | = | 5.15

---

Tested system: IDE (Homo sapiens, UniProt P14735)
Method notes: In vitro IDE enzymatic assay (hydrolysis of FRET1, SP1, FAβB, 125I-insulin or insulin by HTRF)
Type: biochemical
Parameters: made in house; host or cells: bacteria
Run parameters: ki^app, Substrate: HTRF-Ins
Measurement kind: Ki (nM)

Molecule smiles | Unit symbol | Result
N=C(N)NCCC[C@H](NC(=O)[C@@H](CC(=O)NO)Cc1ccc2ccccc2c1)C(=O)N[C@@H](Cc1c[nH]c2ccccc12)C(=O)N[C@@H](CCC(=O)O)C(N)=O | nM | 16.6

---

Reported IC50 values follow for various compounds
Tested system: IDE (Homo sapiens, UniProt P14735)
Method notes: In vitro IDE enzymatic assay (hydrolysis of FRET1, SP1, FAβB, 125I-insulin or insulin by HTRF)
Format: biochemical
Design: made in house; host or cells: bacteria
Run parameters: commercially available hydroxamic acids

Compound | Tested system | Lt gt eq | IC50 [µM]
COc1ccc(S(=O)(=O)N(CC(=O)NO)CC(C)C)cc1 [MMP-3 Inhibitor II, reference compound] | IDE (Homo sapiens, UniProt P14735) | > | 100
O=C(NO)[C@@H](Cc1ccccc1)NS(=O)(=O)c1ccc(-c2ccccc2)cc1 [MMP-2/9 Inhibitor II, reference compound] | IDE (Homo sapiens, UniProt P14735) | > | 100
O=C(CCCN1C(=O)c2cccc3cccc(c23)C1=O)NO [Nullscript] | IDE (Homo sapiens, UniProt P14735) | = | 0.9
CC(C)C[C@H](CC(=O)NO)C(=O)N[C@@H](Cc1ccc2ccccc2c1)C(=O)N[C@@H](C)C(=O)NCCN [TAPI-1, reference compound] | IDE (Homo sapiens, UniProt P14735) | = | 3

---

Tested system: IDE (Homo sapiens)
Method notes: In vitro IDE enzymatic assay (hydrolysis of FRET1, SP1, FAβB, 125I-insulin or insulin by HTRF)
Format: biochemical
Set-up: made in house; host or cells: bacteria
Run parameters: ki^app, Substrate: SP1
pKi: −log10 of the molar value.

Molecule | pKi
N=C(N)NCCC[C@H](NC(=O)[C@@H](CC(=O)NO)Cc1ccc2ccccc2c1)C(=O)N[C@@H](Cc1c[nH]c2ccccc12)C(=O)N[C@@H](CCC(=O)O)C(N)=O [Ii1] | 8.59
